# Protocol notes: chemical genetic growth profiling, strain panel (AID 1159580);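 note: tested at 20 µM; growth read once vehicle control cultures reached saturation at 30 °C; 1 = growth at the plate median or of vehicle wells; lower values mean less growth of the strain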
# Assay context: S. cerevisiae deletion strains, growth OD, locus YLR221C, strain rsa3
The whole screen tested about 5,500 compounds, of which about 2,000 (36%) were called active. Another 18% or so got no clear call; they are omitted. Cut-off read from the data, not from the text of the source: active = normalized growth mostly below about 0.91 (no sharp cut-off); inconclusive = no clear call, values can overlap the other calls; inactive = mostly above about 0.92. The list shows a part of the results.
Labels: active, inactive

| Compound | Group label |
| --- | --- |
| Nc1cc(C(Cl)=C(Cl)Cl)c(S(N)(=O)=O)cc1S(N)(=O)=O | inactive |
| COc1ccc(C(=O)CC(=O)c2ccc(C(C)(C)C)cc2)cc1 | inactive |
| CCOC(=O)[C@H](CCc1ccccc1)N[C@@H](C)C(=O)N1Cc2ccccc2C[C@H]1C(=O)O | inactive |
| CN(C)CCC(c1ccc(Br)cc1)c1ccccn1 (stereo unspecified) | inactive |
| NNCCc1ccccc1 | inactive |
| CCN(CC)C(C)CN1c2ccccc2Sc2ccccc21 (stereo unspecified) | inactive |
| CNCCCN1c2ccccc2CCc2ccccc21 | inactive |
| O=[N+]([O-])c1cccc2c(Br)[nH]nc12 | inactive |
| O=[N+]([O-])c1cccc2cn[nH]c12 | inactive |
| CN1CCN(C2=Nc3ccccc3Oc3ccc(Cl)cc32)CC1 | inactive |
| CN(C)N=Nc1nc[nH]c1C(N)=O | inactive |
| O=C(O)c1ccccc1C(=O)Nc1ccc(S(=O)(=O)Nc2nccs2)cc1 | inactive |
| c1ccc2nc(N3CCNCC3)ccc2c1 | inactive |
| CC(CN(C)C)CN1c2ccccc2CCc2ccccc21 (stereo unspecified) | inactive |
| O=C(O)CCCOc1ccc(Cl)cc1Cl | inactive |
| C[C@@H](N)[C@@H](O)c1ccccc1 | inactive |
| CC(=O)OCC(=O)[C@@]1(O)[C@H](OC(C)=O)CC2C3CCC4=CC(=O)C=C[C@]4(C)[C@@]3(F)[C@@H](O)C[C@@]21C (stereo partly specified) | inactive |
| OC[C@H]1OC([S-])[C@H](O)[C@@H](O)[C@@H]1O.[Au+] (stereo partly specified) | inactive |
| CC1(C)C(O)CC(O)C2(C)C1CC(O)C1(C)C2CCC2(C)C(c3ccoc3)OC(=O)C3OC321 (stereo unspecified) | inactive |
| NS(=O)(=O)c1cc2c(cc1Cl)NC(C1CC3C=CC1C3)NS2(=O)=O (stereo unspecified) | inactive |
| O=C(O)CCC(=O)Nc1ccc(S(=O)(=O)Nc2nccs2)cc1 | inactive |
| Nc1cc(-c2ccncc2)c[nH]c1=O | active |
| CNC(=O)Oc1ccc2c(c1)[C@]1(C)CCN(C)[C@@H]1N2C | inactive |
| Nc1ccncc1 | inactive |
| CN(C)CCOC(=O)COc1ccc(Cl)cc1 | inactive |
| CC(CN1c2ccccc2Sc2ccccc21)N(C)C (stereo unspecified) | inactive |
| COc1ccc(C(=O)N2CCCC2=O)cc1 | inactive |
| NC(N)=O | inactive |
| CN(C)CCOC(=O)C(c1ccccc1)C1(O)CCCC1 (stereo unspecified) | inactive |
| N#C/C(=C\c1cccc(O)c1)C(=O)O | inactive |
| NCC(CC(=O)O)c1ccc(Cl)cc1 (stereo unspecified) | inactive |

---

# Protocol notes: chemical genetic growth profiling, strain panel (AID 1159580)
# Assay context: S. cerevisiae deletion strains, growth OD, locus YPR135W, strain CTF4
Among all 5,500 compounds or so, about 2,000 (36%) were called active. Roughly 18% stayed inconclusive and do not appear here. No stated cut-off is given here; in the data, active means normalized growth mostly below about 0.91 (no sharp cut-off); inconclusive means no clear call, values can overlap the other calls; inactive means mostly above about 0.92. This is one part of the list.
Labels: T = active, F = inactive

| Molecule | Group label |
| --- | --- |
| N/C(=N/O)c1csc(-c2ccc(F)cc2F)n1 | F |
| COc1cc(CC/C(C)=N/O)ccc1OCc1ccc(Cl)cc1Cl | T |
| Cc1cc(CN2CC(C)OC(C)C2)cc(C)c1O (stereo not drawn) | F |
| Cc1c(S(=O)(=O)c2ccc(Cl)cc2)csc1C(=O)Nc1ccc(N2CCOCC2)c(Cl)c1 | F |
| Cc1c(S(=O)(=O)c2ccc(Cl)cc2)csc1S(=O)(=O)N/N=C\c1c(Cl)cccc1Cl | F |
| CC(=O)c1ccc(-c2ccc(Cl)c(Cl)c2)o1 | T |
| COc1ccc(C=Nc2ccc(O)cc2)cc1 | F |
| Cc1ccc(/C(N)=N\O)cc1F | F |

---

# normalized growth annotations
# Protocol notes: chemical genetic growth profiling, strain panel (AID 1159580);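 note: tested at 20 µM; growth read once vehicle control cultures reached saturation at 30 °C; 1 = growth at the plate median or of vehicle wells; lower values mean less growth of the strain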
# Assay context: S. cerevisiae deletion strains, growth OD, locus YBR136W, strain MEC1, active compounds read low
Hit rate of the full screen: of about 5,500 compounds, about 2,000 (36%) were called active. About 18% were inconclusive and are not listed. The list shows a part of the results.
Reported metric: normalized growth

| Molecule | Reported metric | Endpoint value |
| --- | --- | --- |
| S=C(Nc1cc(Cl)c(Cl)cc1Cl)Nc1ccccc1Br | normalized growth | 0.953 |
| CC1C/C(=N/Nc2ccc(Br)cc2)c2cc(Cl)ccc2S1 (centres undefined) | normalized growth | 0.497 |
| O=C(NNc1ccc(Cl)cc1)c1ccc(F)cc1F | normalized growth | 0.946 |
| O=C(Nc1ccc(Cl)cc1)O/N=C\c1ccn(-c2ccccc2)n1 | normalized growth | 0.937 |
| S=C(NNc1ccccc1)Nc1cc(Cl)ccc1Cl | normalized growth | 0.962 |
| C/C(=N/Nc1ccccc1)c1cc(Cl)cc(Cl)c1O | normalized growth | 0.954 |
| COc1ccc(CC2CCC(=NOC(=O)c3ccc(C(C)(C)C)cc3)CC2)cc1 (centres undefined) | normalized growth | 0.985 |
| CNC(=O)n1nc(C)c(Cc2csc3ccc(Cl)cc23)c1C | normalized growth | 0.997 |
| CC1C/C(=N/Nc2ccc(Br)cc2)c2cc(Cl)ccc2S1(=O)=O (centres undefined) | normalized growth | 0.999 |

---

# Protocol notes: chemical genetic growth profiling, strain panel (AID 1159580);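 note: tested at 20 µM; growth read once vehicle control cultures reached saturation at 30 °C; 1 = growth at the plate median or of vehicle wells; lower values mean less growth of the strain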
# Assay context: S. cerevisiae deletion strains, growth OD, locus YGL253W, strain hxk2, active compounds read low
Screen size: about 5,500 compounds; about 2,000 (36%) were called active. Inconclusive results (about 18%) are left out. The list shows a part of the results.

| Structure notation | normalized growth |
| --- | --- |
| CN1CCN(C2=Nc3ccccc3Oc3ccc(Cl)cc32)CC1 | 0.982 (inactive) |
| COc1ccc(C(=O)N2CCCC2=O)cc1 | 0.976 (inactive) |
| O=c1cc(-c2ccccc2)oc2cccc(O)c12 | 0.859 (active) |
| Clc1ccc2c(c1)C(N1CCNCC1)=Nc1ccccc1O2 | 0.989 (inactive) |
| CC12CC3CC(C)(C1)CC(N)(C3)C2 | 0.977 (inactive) |
| S=P(N1CC1)(N1CC1)N1CC1 | 1.02 (inactive) |
| c1ccc2nc(N3CCNCC3)ccc2c1 | 1.01 (inactive) |

---

# Protocol notes: chemical genetic growth profiling, strain panel (AID 1159580);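 note: tested at 20 µM; growth read once vehicle control cultures reached saturation at 30 °C; 1 = growth at the plate median or of vehicle wells; lower values mean less growth of the strain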
# Assay context: S. cerevisiae deletion strains, growth OD, locus YNL067W, strain RPL9B, active compounds read low
Screen size: about 5,500 compounds; about 2,000 (36%) were called active. Inconclusive results (about 18%) are left out. Some of the results follow.
Reported metric: normalized growth

| Molecule | Endpoint value |
| --- | --- |
| COc1cc(OC)c2c3c1C(=O)c1c(OC)cc(C)c4c(OC)cc(c-3c14)C(C)(C)C2=O | 1.01 |
| Nc1ccn(C2O[C@H](CO)[C@@H](O)[C@H]2O)c(=O)n1 (some centres undefined) | 1.03 |
| CN(C(=O)CN(CCO)CC(=O)N(C)C(C)(C)Cc1ccccc1)C(C)(C)Cc1ccccc1 | 0.994 |
| CN[C@@H]1[C@H](OC2[C@H](O[C@H]3[C@H](O)[C@@H](O)[C@H](N=C(N)N)[C@@H](O)[C@@H]3N=C(N)N)O[C@@H](C)[C@]2(O)C=O)O[C@@H](CO)[C@H](O)[C@H]1O (some centres undefined) | 1.01 |
| CC(=O)N=c1sc(S(N)(=O)=O)nn1C | 0.988 |
| N[C@H](Cc1cc(I)c(Oc2ccc(O)c(I)c2)c(I)c1)C(=O)O | 1.01 |
| Nc1ccncc1 | 1.01 |
| CCCC(CCC)C(=O)O | 0.988 |
| CC1=C2[C@H]3OC(=O)[C@@H](C)[C@@H]3CC[C@@]2(C)C=CC1=O | 1.02 |
| CCCCCC1C(=O)CCC1CC(=O)OC (centres undefined) | 1.03 |
| COc1cc(OC)c(OC)cc1C=O | 1.04 |
| Cc1cc(O)c(C=O)c2c1C(=O)Oc1c(C)c(O)c3c(c1O2)C(O)OC3=O (centres undefined) | 0.981 |
| CCN(CCCc1ccccc1)CCCc1ccccc1 | 1.02 |
| NNCCc1ccccc1 | 0.981 |
| Cc1cc(O)c(C)c2c1C(=O)Oc1c(C)c(O)c(C(=O)O)c(C)c1O2 | 1 |
| N[C@@H](Cc1cc(I)c(Oc2ccc(O)c(I)c2)c(I)c1)C(=O)O | 1.02 |
| CC(=O)Nc1nnc(S(N)(=O)=O)s1 | 0.755 |
| O=c1cc(-c2ccccc2)oc2cc(O)c(O)c(O)c12 | 0.401 |
| N#C/C(=C\c1cccc(O)c1)C(=O)O | 0.989 |
| N[C@H](Cc1ccccc1)C(=O)O | 1.02 |
| NC(Cc1ccc(F)cc1)C(=O)O (centres undefined) | 1.03 |
| COc1cc2c(cc1O)C(Cc1ccc(O)cc1)N(C)CC2 (centres undefined) | 1.01 |
| Cc1cc(O)c(C=O)c2c1C(=O)Oc1c(COC(=O)/C=C/C(=O)O)c(O)c(C(=O)O)c(C)c1O2 | 0.92 |
| CCCCCC1C(=O)CCC1CC(=O)O (centres undefined) | 1.04 |
